These data points were gathered from a collection of fitness landscapes (doi:10.1126/science.1257360).

Could you please report measured enrichment ratio for the items listed next?
B1: PhoQ; a variant is named by its letters at X, in order, P23837 (parent)
chain: MKKLLRLFFPLSLRVRFLLATAAVVLVLSLAYGMVALIGYSVSFDKTTFRLLRGESNLFYTLAKWENNKLHVELPENIDKQSPTMTLIYDENGQLLWAQRDVPWLMKMIQPDWLKSNGFHEIEADVNDTSLLLSGDHSIQQQLQEVREDDDDAEMTHSVAVNVYPATSRMPKLTIVVVDTIPVELKSSYMVWSWFIYVLSANLLLVIPLLWVAAWWSLRPIEALAKEVRELEEHNRELLNPATTRELTSLVRNLNRLLKSERERYDKYRTTLTDLTHSLKTPLXXLQXXLRSLRSEKMSVSDAEPVMLEQISRISQQIGYYLHRASMRGGTLLSRELHPVAPLLDNLTSALNKVYQRKGVNISLDISPEISFVGEQNDFVEVMGNVLDNACKYCLEFVEISARQTDEHLYIVVEDDGPGIPLSKREVIFDRGQRVDTLRPGQGVGLAVAREITEQYEGKIVAGESMLGGARMEVIFGRQHSAPKDE

variants of: B1; experiment: enrichment ratio after two sorts for PhoP signalling (ratio (wild type AVST 3.29)); higher = more functional; conditions: with PhoP (E. coli)
The full ranking holds about 140,000 sequences; the median of “enrichment ratio after two sorts for PhoP signalling” is about 0, and the highest 2% start at about 11. What follows is part of a selection rich in the highest values, with near analogues and random picks from the rest.

The examples below pair each entry with its known result.
>  <mut>
KQVS

>  <enrichment ratio>
≤ 0.25

$$$$
>  <mut>
NAYE

>  <enrichment ratio>
≤ 0.25

$$$$
>  <mut>
VIWT

>  <enrichment ratio>
≤ 0.25

$$$$
>  <mut>
AGSS

>  <enrichment ratio>
11.2

$$$$

Return reported enrichment ratio values for all items listed beneath this line.
1. AVPC
2. NMTI

[reply]
["≤ 0.25", "≤ 0.25"]

Would you be so kind as to report enrichment ratio for each listed record?
1. AQWG
2. SMLL
3. TNMV
4. MGTH
5. ADSS
6. AIAF

[reply]
1. ≤ 0.25
2. 11.2
3. 12.6
4. ≤ 0.25
5. ≤ 0.25
6. 12.4
